B1: LINE1-full (parent)
chain: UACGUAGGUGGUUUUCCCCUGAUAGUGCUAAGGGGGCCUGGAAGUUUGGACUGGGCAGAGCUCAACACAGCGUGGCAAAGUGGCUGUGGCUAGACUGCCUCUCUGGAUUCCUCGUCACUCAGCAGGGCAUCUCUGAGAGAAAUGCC

Variants of: B1
Experiment: self-cleavage, relative activity (ratio to wild type); higher = more cleavage; in vitro, sequencing; the parent is a self-cleaving ribozyme
Listing: self-cleavage of selected variants

Examples from the recorded data:
INSERT INTO assay_data (sequencecode, measuredmetric, result) VALUES
  ('UACGUAGGUGGUUUUCCCCUGAUAGUGCUAAGGGGGCCUGGAAGUUUGGACUGGGCAGAGCUCAACACAGCGUGGUAAAGUGGCUGUGGCUAGACUGCCUCUCUGGAUUCCUCGUCACUCAGCAGGGCAUCUCUGAGAGUAAUGCC [C76U A140U]', 'self-cleavage', 2.07),
  ('UACGUAGGUGGUUUUCCCCUGAUAGUGCUAAGGGCGCCUGGAAGUUUGGACUGGGCAGAGCUCAACACAGCGUGGCAAAGUGGCUGUGGCUAGACUGCCUCUCUGGAUUCCUCGUCACUCAGCAGGGCAUCUCUGAGAGAAAGGCC [G35C U143G]', 'self-cleavage', 0.86),
  ('UACGUAGGUGGUCUUCCCCUGAUAGUGCUAAGGGGGCCUGGAAGUUUGGACUGGGCAGAGCUCAACACAGCGGGGCAAAGUGGCUGUGGCUAGACUGCCUCUCUGGAUUCCUCGUCACUCAGCAGGGCAUCUCUGAGAGAAAUGCC [U13C U73G]', 'self-cleavage', 0.91),
  ('UACGUAGGUGGUUUUCCCCUGAUAGUGCUAAGGGGGCCUGGAAGUUUGGACUGGGCAGAGCUCAACACAGCGUGGCAAAGUGGCCGUGGCUAGACUGCCUCUCUGGAUUCCUUGUCACUCAGCAGGGCAUCUCUGAGAGAAAUGCC [U85C C113U]', 'self-cleavage', 0.1),
  ('UACGUAGGUGGUUUACCCCUGAUAGUGCUAAGGGGGCCUGGAAGUUUGGACUGGGCAGAGCUCAACACAGCGUGGCGAAGUGGCUGUGGCUAGACUGCCUCUCUGGAUUCCUCGUCACUCAGCAGGGCAUCUCUGAGAGAAAUGCC [U15A A77G]', 'self-cleavage', 0.89);

[ask] Name the recorded self-cleavage of the item UACGCAGGUGGUUUUCCCCUGAUAGUGCUAAGGUGGCCUGGAAGUUUGGACUGGGCAGAGCUCAACACAGCGUGGCAAAGUGGCUGUGGCUAGACUGCCUCUCUGGAUUCCUCGUCACUCAGCAGGGCAUCUCUGAGAGAAAUGCC [U5C G34U] in your answer.
[reply] 0.82

[ask] Name the recorded self-cleavage of the item UACGUAGGUGGUUUUCCCCUGAUAGUGCUAAGGGGGCCUGGAAGUUUGGACUGGGCAGAGCUCAACUCAGCGUGGCAAAGUGGCUGUGGCUAGACUGCCUCUCUGGAUUCCUCGUCACUCAGCAGGGCAUAUCUGAGAGAAAUGCC [A67U C131A] in your answer.
[reply] 0.13

[ask] Name the recorded self-cleavage of the item UACGUAGGUGGUUUUCCCCUGAUAGUGCUAAGGGGGCCUGGAAGUUUGGACUGGGCAGAGCUCAACACAGCGAGGCAAAGUGGCUGUGGCUAGACUGCCUCUCUGGAUUCCUCGUCACUCAGUAGGGCAUCUCUGAGAGAAAUGCC [U73A C123U] in your answer.
[reply] 1.3
